test system: SN12C; assay: NCI tumour cell line growth inhibition, 48 h
Calls of active or inactive are those of the source. Cut-off read from the data, not from the text of the source: active = GI50 up to about 1.1 µM and inactive = higher.
Assay readout: GI50

Exam item: Consider the compound [N-]=[N+]=N/C1=C/CCCCC(=O)C1 . State its measured GI50.
Marked response: > 100 µM (inactive)

Exam item: Consider the compound COC(=O)C1OC(SCCN)C(O)C(O)C1O (centres undefined) . State its measured GI50.
Marked response: > 100 µM (inactive)

Exam item: Consider the compound O=c1c2ncn(C3CCCO3)c2n(-c2ccccc2)c(=S)n1-c1ccccc1 (centres undefined) . State its measured GI50.
Marked response: > 100 µM (inactive)

Exam item: Consider the compound COc1cc(/C=C2/C[C@H]3[C@@H]4CCC5=CC(=O)CC[C@]5(C)[C@H]4CC[C@]3(C)NC2=O)cc(OC)c1OC . State its measured GI50.
Marked response: 22.1 µM (inactive)

Exam item: Consider the compound CCOC1c2cc(OC)c(OC)cc2-c2ccc3ccccc3c2N1C (centres undefined) . State its measured GI50.
Marked response: 7.76 µM (inactive)

---
Exam item: Consider the compound N=C(N)NS(=O)(=O)c1ccc(NC(=O)c2cccc3c(NNc4ccc(S(=O)(=O)N=C(N)N)cc4)c4ccccc4nc23)cc1 . State its measured GI50.
Marked response: > 100 µM (inactive)

Exam item: Consider the compound O=[N+]([O-])c1cc(C(F)(F)F)cc([N+](=O)[O-])c1CCl . State its measured GI50.
Marked response: 1.55 µM (inactive)

Exam item: Consider the compound O=c1oc2cc(O)ccc2cc1-c1nc2ccccc2s1 . State its measured GI50.
Marked response: 21.8 µM (inactive)

Exam item: Consider the compound CNC1C(OC2C(OC3C(O)C(O)C(O)C(O)C3O)OC(C)C2(O)CO)OC(CO)C(O)C1O.N=C(N)N.NC(=O)O (centres undefined) . State its measured GI50.
Marked response: > 100 µM (inactive)
